- Species on record: Rattus norvegicus
- ASSAY NAME: DrugMatrix - Regimen: Daily Repeat
- Assay type: toxicity, organism-based, Sprague-Dawley
- Set-up: regimen Daily Repeat, gender Male, age 6-8 weeks
- CONDITION: in vivo, po, 1500 mg/kg, 120 h, tissue Blood, route oral GAVAGE, dose level High, time 5 day, vehicle .5 % CMC
READOUT KIND: LYMPHOCYTE (%)
Numbers only, in %.

# example entries with known answers
CC(C)Oc1ccc2c(=O)c(-c3ccccc3)coc2c1 [IPRIFLAVONE] ... 91.33
O=c1cnn([C@@H]2O[C@H](CO)[C@@H](O)[C@H]2O)c(=O)[nH]1 [6-AZAURIDINE] ... 91

Please turn your attention to the following entry.
Q: Item under review: CN(C)[C@@H]1C(O)=C(C(N)=O)C(=O)[C@@]2(O)C(O)=C3C(=O)c4c(O)ccc(Cl)c4[C@@](C)(O)[C@H]3C[C@@H]12 [CHLORTETRACYCLINE] . Reported LYMPHOCYTE?
Result: 92.67

Where do these numbers come from? They come from ChEMBL document CHEMBL3885881.
